# PROCEDURE_TEXT: TAR RNA-Tat peptide displacers, HIV-1, primary screen, biochemical, FRET, FAM/TAMRA-labeled Tat (AID 1259389)
# ASSAY_SETUP: HIV-1 TAR RNA, Tat peptide displacement FRET; hits give high values
About 620 (0.62%) of roughly 100,000 compounds were called active. Only a selection was taken, and actives are over-represented in it overall.
Label met when z-score >= 1; otherwise not met.

Past entries and their recorded results:
O=C(NCc1ccc2c(c1)OCO2)c1sc(=S)n2c1[nH]c(=O)c1ccccc12 | met
COc1cc(NC(=O)NCC2CCCO2)cc2sc(NS(=O)(=O)c3ccccc3)nc12 (configuration not stated) | not met
C=CCN(Cc1nc(-c2cccc(C)c2)no1)S(=O)(=O)c1ccccc1 | met

Textbook exercise: given the entry O=S(=O)(c1ccc(Cl)cc1)N(Cc1nc(-c2ccccc2)no1)C1CCCCC1 , state whether its z-score is greater than or equal to 1. not met

Textbook exercise: given the entry O=C(Nc1ccccc1Br)c1cnn(-c2ccccc2)c1-n1cccc1 , state whether its z-score is greater than or equal to 1. met

Textbook exercise: given the entry O=C(NCc1ccc2c(c1)OCO2)C(=O)c1c[nH]c2ccccc12 , state whether its z-score is greater than or equal to 1. not met

Textbook exercise: given the entry Cc1nn(C)c(C)c1CNC(=O)Cn1c(-c2cccs2)cc2cc(Cl)ccc21 , state whether its z-score is greater than or equal to 1. not met

* * *

# PROCEDURE_TEXT: TAR RNA-Tat peptide displacers, HIV-1, primary screen, biochemical, FRET, FAM/TAMRA-labeled Tat (AID 1259389)
# ASSAY_SETUP: HIV-1 TAR RNA, Tat peptide displacement FRET; hits give high values
In all, about 100,000 compounds went through this assay and about 620 (0.62%) were called active. This is one part of a sample in which actives are shown more often than they occur.
Label YES when z-score >= 0.6; otherwise NO.

Past entries and their recorded results:
Cc1ccc2cc(-c3noc(CCC(N)=O)n3)c(=O)[nH]c2c1 | YES
Cc1ccc2cc(-c3noc(CC(C)C)n3)c(=O)[nH]c2c1 | NO

Textbook exercise: given the entry COc1cccc(-c2nc(-c3cc4cc(C)ccc4[nH]c3=O)no2)c1 , state whether its z-score is greater than or equal to 0.6. NO

Textbook exercise: given the entry COc1ccc(-c2nc3sccn3c2Nc2ccc(Cl)cc2)cc1 , state whether its z-score is greater than or equal to 0.6. NO

Textbook exercise: given the entry C=CCSc1ncc(Cl)c(C(=O)Nc2c(C(=O)Nc3ccc(OC)cc3)oc3ccccc23)n1 , state whether its z-score is greater than or equal to 0.6. YES

* * *

# PROCEDURE_TEXT: TAR RNA-Tat peptide displacers, HIV-1, primary screen, biochemical, FRET, FAM/TAMRA-labeled Tat (AID 1259389)
# ASSAY_SETUP: HIV-1 TAR RNA, Tat peptide displacement FRET; hits give high values
In all, about 100,000 compounds went through this assay and about 620 (0.62%) were called active. The full list was thinned out, with actives kept by preference.
READOUT_LABEL: z-score

Recorded z-score, per entry:
O=C(Cn1nc(-c2ccccc2)c2cnc3cc4c(cc3c21)OCCO4)NC1CCCC1 | -0.04 (inactive)
O=C(O)c1[nH]c2ccccc2c1-n1cccc1 | 13.1 (active)
CCN1CCN(c2ncnc3sc(C(=O)N4CCC(N5CCCCC5)CC4)c(C)c23)CC1 | 1.72 (inactive)
Cc1[nH]c2ccccc2c1C(=O)CN1CCN(C)CC1 | 1.46 (inactive)
Cc1cc(C)cc(NC2c3ncccc3C(=O)N2c2ccccc2)c1 (stereo unspecified) | -1.21 (inactive)

For CCOc1ccc(/C=C/c2nc(C#N)c(N3CCNCC3)o2)cc1 the compound record lists z-score as 0.65 (inactive)

* * *

# PROCEDURE_TEXT: TAR RNA-Tat peptide displacers, HIV-1, primary screen, biochemical, FRET, FAM/TAMRA-labeled Tat (AID 1259389)
# ASSAY_SETUP: HIV-1 TAR RNA, Tat peptide displacement FRET; hits give high values
Out of some 100,000 compounds screened, about 620 (0.62%) were called active. The list comes from a sample in which actives are over-represented; it also holds close analogues and randomly drawn compounds.
READOUT_LABEL: z-score

Recorded z-score, per entry:
COc1ccccc1N1CCN(Cc2cc(=O)n3nc(C4CCCCC4)sc3n2)CC1 | 0.09 (inactive)
CC1CCN(S(=O)(=O)c2ccc3[nH]c(=O)ccc3c2)CC1 | -0.99 (inactive)
CCCC1CNc2cc(C)ccc2O1 (stereo not given) | 2.06 (inactive)

For CC(C)NC(=O)c1sc(=S)n2c1[nH]c(=O)c1ccc(C(=O)NCCN(C)C)cc12 the compound record lists z-score as 7.52 (active)

For O=C(O)c1ccc2c(=O)[nH]c3c(C(=O)NC4CCCCC4)sc(=S)n3c2c1 the compound record lists z-score as 10.3 (active)

* * *

Item-by-item account of z-score
# PROCEDURE_TEXT: TAR RNA-Tat peptide displacers, HIV-1, primary screen, biochemical, FRET, FAM/TAMRA-labeled Tat (AID 1259389)
# ASSAY_SETUP: HIV-1 TAR RNA, Tat peptide displacement FRET; hits give high values
The campaign covered roughly 100,000 compounds. About 620 (0.62%) were called active. For the sample, actives were picked, then their nearest neighbours and some compounds at random.
Kindly provide the number alone.

For COc1cccc(Nc2c(O)c(=O)c2=O)c1 the compound record lists z-score as -0.8

For Cn1c(=O)oc2cc(S(=O)(=O)N3CCC(C(=O)NCCC4=CCCCC4)CC3)ccc21 the compound record lists z-score as -0.51

For Cc1c(C(=O)N2CCOCC2)oc2c1-c1nn(CC(=O)NC3CCCc4ccccc43)cc1CC2 (stereo not given) the compound record lists z-score as 3.05

* * *

# PROCEDURE_TEXT: TAR RNA-Tat peptide displacers, HIV-1, primary screen, biochemical, FRET, FAM/TAMRA-labeled Tat (AID 1259389)
# ASSAY_SETUP: HIV-1 TAR RNA, Tat peptide displacement FRET; hits give high values
Out of some 100,000 compounds screened, about 620 (0.62%) were called active. This is one part of a sample in which actives are shown more often than they occur.
Item-by-item account of z-score
Kindly provide the number alone.

C=C(C)COc1ccc2oc(C)c(C(=O)OCC)c2c1 | 0.55
C[C@@H]1O[C@@H](O[C@H]2[C@@H](Oc3cc(O)c4c(c3)O[C@H](c3ccc(O)cc3)CC4=O)O[C@H](CO)[C@@H](O)[C@@H]2O)[C@H](O)[C@H](O)[C@H]1O | 2.09

For O=C(CSc1nnc(-c2cccnc2)n1-c1ccccc1)c1ccc(F)cc1 the molecule record lists z-score as 1.26

For COC(=O)c1cc2n(n1)CC(C)(C(=O)NC1CCC(C)CC1)N(CCc1cccs1)C2=O (stereo unspecified) the molecule record lists z-score as 0.65

* * *

# PROCEDURE_TEXT: TAR RNA-Tat peptide displacers, HIV-1, primary screen, biochemical, FRET, FAM/TAMRA-labeled Tat (AID 1259389)
# ASSAY_SETUP: HIV-1 TAR RNA, Tat peptide displacement FRET; hits give high values
Among all 100,000 compounds or so, about 620 (0.62%) were called active. The entries come from a sample that favours actives as a whole.
Item-by-item account of z-score

Recorded z-score, per entry:
COc1cc(C)c(S(=O)(=O)N2CCc3cc4cc(C)ccc4nc32)cc1C | -1.52 (inactive)
CN(C)CCCNc1oc(-c2ccc(S(=O)(=O)N3CCc4ccccc4C3)cc2)nc1C#N | 11.4 (active)
CC1Sc2ccc(S(=O)(=O)N(C)c3ccc(Br)cc3)cc2NC1=O (stereo unspecified) | 1.17 (inactive)
O=C(CSc1ncc(S(=O)(=O)c2ccccc2)c(=O)[nH]1)Nc1cccc(F)c1 | -1.01 (inactive)
O=C(c1cc(-c2ccccc2)n[nH]1)N1CCn2c1nc1ccccc12 | 0.42 (inactive)

For CCOc1ccc2nc(Nc3nc(C)c(CC)c(=O)[nH]3)nc(C)c2c1 the compound record lists z-score as 2.61 (inactive)

For O=C(O)C1Nc2ccc(Cl)cc2C2C=CCC12 (stereo unspecified) the compound record lists z-score as 42 (active)

For CCSc1nc2c(c(=O)[nH]1)C(c1ccc(OC)c(Br)c1)CC(=O)N2 (stereo unspecified) the compound record lists z-score as 1.43 (inactive)

For CN1C(=O)C[C@H](C(=O)O)C1c1cccnc1 (stereo partly specified) the compound record lists z-score as 1.8 (inactive)

For CCOC(=O)C1=C(C)NC2=C(C(=O)C(C(=O)OC)C(C)C2)C1c1ccc(C)s1 (stereo unspecified) the compound record lists z-score as 1.89 (inactive)

For CCc1cccc(NS(=O)(=O)c2ccc(/C=C/c3onc(C)c3[N+](=O)[O-])cc2)c1 the compound record lists z-score as 1.16 (inactive)

For CCOC(=O)c1[nH]c(C)c(C(=O)NC2CCCC(C)C2C)c1C (stereo unspecified) the compound record lists z-score as 0.78 (inactive)

For CCOc1ccc2nc(Nc3ncc4c(n3)CC(c3ccco3)CC4=O)nc(C)c2c1 (stereo unspecified) the compound record lists z-score as 13.8 (active)
